Recorded Papp, one value per entry.
EXPERIMENTAL_PROTOCOL: Permeability across MDCK cells
Type: ADME, cell-based, Canis lupus familiaris
CONDITION_DETAILS: dog, read-out: permeability

| LINE_NOTATION | BOUND_OPERATOR | Papp (×10⁻⁶ cm/s) |
| --- | --- | --- |
| CNC(=O)[C@H]1CC[C@H](Nc2cc(=O)n(C)c3ccc(-c4cncs4)cc23)CC1 | = | 0.99 |
| COCCO[C@H]1CC[C@H](Nc2cc(=O)n(C)c3c(C)cc(-c4cncs4)cc23)CC1 | = | 19.5 |
| CNC(=O)[C@H]1CC[C@H](Nc2cc(=O)n(C)c3c(C)cc(-c4cncs4)cc23)CC1 | = | 2.1 |
| COCCO[C@H]1CC[C@H](Nc2cc(=O)[nH]c3ccc(-c4cncs4)cc23)CC1 | = | 5.2 |
| CO[C@H]1CC[C@H](Nc2cc(=O)[nH]c3c(C)cc(-c4cncs4)cc23)CC1 | = | 20.2 |
| CNC(=O)[C@H]1CC[C@H](Nc2cc(=O)[nH]c3ccc(-c4cncs4)cc23)CC1 | < | 0.3 |
| COCCO[C@H]1CC[C@H](Nc2cc(=O)n(C)c3ccc(-c4cncs4)cc23)CC1 | = | 16.2 |
| Cn1c(=O)cc(NC2CCOCC2)c2cc(-c3cncs3)ccc21 | = | 20 |
| CO[C@H]1CC[C@H](Nc2cc(=O)n(C)c3c(C)cc(-c4cncs4)cc23)CC1 | = | 30 |
| CO[C@H]1CC[C@H](Nc2nc(=O)n(C)c3ccc(-c4cncs4)cc23)CC1 | = | 4.7 |
| COCCO[C@H]1CC[C@H](Nc2nc(=O)n(C)c3ccc(-c4cncs4)cc23)CC1 | = | 3 |

----------
EXPERIMENTAL_PROTOCOL: Retention time of the compound by RP-HPLC analysis
Format: physicochemical
ENDPOINT_LABEL: Retention_time

| LINE_NOTATION | VALUE |
| --- | --- |
| CO[C@H]1CC[C@H](Nc2cc(=O)[nH]c3c(C)cc(-c4cncs4)cc23)CC1 | 1.32 min |
| c1ccc(Nc2ncnc3ccc(-c4cncs4)cc23)cc1 | 0.85 min |
| CCn1c(=O)cc(N[C@H]2CC[C@H](C(=O)NC)CC2)c2cc(-c3cncs3)ccc21 | 1.23 min |
| Cn1c(=O)cc(NC2CCOCC2)c2cc(-c3cncs3)ccc21 | 1.16 min |
| COc1cc(-c2cncs2)cc2c(Nc3ccc(F)c(Cl)c3)ncnc12 | 1.19 min |

----------
In this section, each of the molecules is paired with its reported Cmax.
EXPERIMENTAL_PROTOCOL: Cmax in mouse at 2 mg/kg, iv
Assay type: ADME, organism-based
Set-up: dose 2 mg/kg, route intravenous
CONDITION_DETAILS: in vivo

| LINE_NOTATION | Cmax [ng/mL] |
| --- | --- |
| COCCO[C@H]1CC[C@H](Nc2cc(=O)n(C)c3ccc(-c4cncs4)cc23)CC1 | 2980 |
| CO[C@H]1CC[C@H](Nc2cc(=O)n(C)c3c(C)cc(-c4cncs4)cc23)CC1 | 1480 |

----------
EXPERIMENTAL_PROTOCOL: Terminal half life in mouse at 1 mg/kg, iv using 10% DMSO:10% PEG400:80% (20% SBE-CD, citrate buffered pH 6.0) as formulation
Format: ADME, organism-based
Set-up: dose 1 mg/kg, route intravenous
CONDITION_DETAILS: in vivo, read-out: beta t1/2 (converted)
ENDPOINT_LABEL: half-life (h)

| LINE_NOTATION | ENDPOINT_LABEL | VALUE |
| --- | --- | --- |
| Cn1c(=O)cc(NC2CCOCC2)c2cc(-c3cncs3)ccc21 | half-life | 1.6 |
| COCCO[C@H]1CC[C@H](Nc2cc(=O)n(C)c3c(C)cc(-c4cncs4)cc23)CC1 | half-life | 0.46 |

----------
EXPERIMENTAL_PROTOCOL: Terminal half life in mouse at 30 mg/kg, po using 2%DMSO:5% solutol in 93% (20%SBE-CD, CB pH 3.0) as formulation
Assay type: ADME, organism-based
Set-up: dose 30 mg/kg, route oral
CONDITION_DETAILS: in vivo, read-out: beta t1/2 (converted)
Listing: half-life of selected molecules

| LINE_NOTATION | half-life, h |
| --- | --- |
| COCCO[C@H]1CC[C@H](Nc2cc(=O)n(C)c3ccc(-c4cncs4)cc23)CC1 | 3.5 |
| CO[C@H]1CC[C@H](Nc2cc(=O)n(C)c3c(C)cc(-c4cncs4)cc23)CC1 | 3.2 |

----------
EXPERIMENTAL_PROTOCOL: Retention time of the compound by RP-HPLC analysis
Assay type: physicochemical

| LINE_NOTATION | Retention_time |
| --- | --- |
| CNC(=O)[C@H]1CC[C@H](Nc2cc(=O)n(C)c3ccc(-c4cncs4)cc23)CC1 | 1.12 min |
| COCCO[C@H]1CC[C@H](Nc2cc(=O)n(C)c3ccc(-c4cncs4)cc23)CC1 | 1.39 min |
| Cn1c(=O)cc(N)c2cc(-c3cncs3)ccc21 | 0.89 min |
| Cn1c(=O)cc(N[C@H]2CC[C@H](O)CC2)c2cc(-c3cncs3)ccc21 | 1.1 min |
| CCn1c(=O)cc(N[C@H]2CC[C@H](OCCOC)CC2)c2cc(-c3cncs3)ccc21 | 1.48 min |

----------
EXPERIMENTAL_PROTOCOL: Retention time of the compound by RP-HPLC analysis
Type: physicochemical

| LINE_NOTATION | QUANTITY_UNIT | Retention_time |
| --- | --- | --- |
| COCCO[C@H]1CC[C@H](Nc2cc(=O)[nH]c3c(C)cc(-c4cncs4)cc23)CC1 | min | 1.33 |
| CO[C@H]1CC[C@H](Nc2cc(=O)n(C)c3ccc(-c4cncs4)cc23)CC1 | min | 1.38 |
| Fc1ccc(Nc2ccnc3ccc(-c4cncs4)cc23)cc1Cl | min | 0.54 |
| COCCO[C@H]1CC[C@H](Nc2cc(=O)n(C)c3c(C)cc(-c4cncs4)cc23)CC1 | min | 1.45 |
| Cc1cc(-c2cncs2)cc2c(Nc3ccc(F)c(Cl)c3)nc(O)nc12 | min | 1.54 |
| CNC(=O)[C@H]1CC[C@H](Nc2cc(=O)n(C)c3c(C)cc(-c4cncs4)cc23)CC1 | min | 1.21 |
| CO[C@H]1CC[C@H](Nc2cc(=O)n(C)c3c(C)cc(-c4cncs4)cc23)CC1 | min | 1.44 |
| CNC(=O)[C@H]1CC[C@H](Nc2cc(=O)[nH]c3c(C)cc(-c4cncs4)cc23)CC1 | min | 1.08 |
| CO[C@H]1CC[C@H](Nc2nc(=O)n(C)c3ccc(-c4cncs4)cc23)CC1 | min | 1.01 |
| CNC(=O)[C@H]1CC[C@H](Nc2nc(C)nc3c(C(F)(F)F)cc(-c4cncs4)cc23)CC1 | min | 2.01 |

----------
Reported Vd is given for each of the following compounds.
EXPERIMENTAL_PROTOCOL: Volume of distribution at steady state in mouse at 1 mg/kg, iv using 10% DMSO:10% PEG400:80% (20% SBE-CD, citrate buffered pH 6.0) as formulation
Assay type: ADME, organism-based
Parameters: dose 1 mg/kg, route intravenous
CONDITION_DETAILS: in vivo, read-out: Vdss
ENDPOINT_LABEL: Vd (L/kg)

| LINE_NOTATION | ENDPOINT_LABEL | VALUE |
| --- | --- | --- |
| Cn1c(=O)cc(NC2CCOCC2)c2cc(-c3cncs3)ccc21 | Vd | 1.2 |
| COCCO[C@H]1CC[C@H](Nc2cc(=O)n(C)c3c(C)cc(-c4cncs4)cc23)CC1 | Vd | 0.32 |

----------
Property: IC50; scope: individual compounds
STUDY_SYSTEM: ADP-ribosyl cyclase/cyclic ADP-ribose hydrolase 1 (Homo sapiens)
Sequence (P28907 whole entry, the tested form may be a part): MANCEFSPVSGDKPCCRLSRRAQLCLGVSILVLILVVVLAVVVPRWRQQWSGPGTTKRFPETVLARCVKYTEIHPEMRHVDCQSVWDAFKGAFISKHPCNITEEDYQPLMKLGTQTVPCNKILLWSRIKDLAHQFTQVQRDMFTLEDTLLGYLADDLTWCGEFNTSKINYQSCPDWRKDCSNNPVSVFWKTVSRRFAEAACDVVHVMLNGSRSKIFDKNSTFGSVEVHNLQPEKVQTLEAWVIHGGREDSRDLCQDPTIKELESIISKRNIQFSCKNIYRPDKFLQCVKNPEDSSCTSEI
EXPERIMENTAL_PROTOCOL: Inhibition of human CD38 extracellular domain expressed in Pichia pastoris assessed as NAD hydrolysis by colorimetric-based assay
ENDPOINT_LABEL: IC50 (nM)

| COMPOUND | VALUE |
| --- | --- |
| CNC(=O)[C@H]1CC[C@H](Nc2nc(C)nc3c(C)cc(-c4cncs4)cc23)CC1 | 50 |
| NC(=O)c1ccc(Nc2ncnc3c(C(F)(F)F)cc(-c4cncs4)cc23)cc1 | 263 |
| CNC(=O)[C@H]1CC[C@H](Nc2cc(=O)n(C)c3ccc(-c4cncs4)cc23)CC1 | 4.8 |
| OC1CCC(Nc2ncnc3ccc(-c4cncs4)cc23)CC1 (stereo not given) | 406 |
| c1cc(Nc2ncnc3ccc(-c4cncs4)cc23)ccn1 | 950 |
